Experiment: activity coefficient (dimensionless); of the first substance listed, at infinite dilution; xn = mol fraction of the nth substance listed
Conditions: 358.15 K; 101.33 kPa; Liquid; Chromatography; x1 = 0
QUANTITY_MEASURED: activity coefficient
Number only, please.

query: State the recorded activity coefficient for this entry: C=CCCC [1-pentene] + CCCCCCCCCCCCCC[P+](CCCCCC)(CCCCCC)CCCCCC.N#CC(=C=[N-])C#N
result: 1.32

query: State the recorded activity coefficient for this entry: C=CCCCCC [1-heptene] + CCCCCCCCCCCCCC[P+](CCCCCC)(CCCCCC)CCCCCC.N#CC(=C=[N-])C#N
result: 1.67

query: State the recorded activity coefficient for this entry: C1CCCCC1 [cyclohexane] + CCCCCCCCCCCCCC[P+](CCCCCC)(CCCCCC)CCCCCC.N#CC(=C=[N-])C#N
result: 1.17

query: State the recorded activity coefficient for this entry: CCC(C)(C)C [2,2-dimethylbutane] + CCCCCCCCCCCCCC[P+](CCCCCC)(CCCCCC)CCCCCC.N#CC(=C=[N-])C#N
result: 1.91

query: State the recorded activity coefficient for this entry: CCC(C)CC [3-methylpentane] + CCCCCCCCCCCCCC[P+](CCCCCC)(CCCCCC)CCCCCC.N#CC(=C=[N-])C#N
result: 1.78

query: State the recorded activity coefficient for this entry: CCCOCCC [dipropyl ether] + CCCCCCCCCCCCCC[P+](CCCCCC)(CCCCCC)CCCCCC.N#CC(=C=[N-])C#N
result: 1.43

query: State the recorded activity coefficient for this entry: CO [methanol] + CCCCCCCCCCCCCC[P+](CCCCCC)(CCCCCC)CCCCCC.N#CC(=C=[N-])C#N
result: 0.417
